Hey, just so you know, these numbers are from patent US9890133B2.

procedure-text: in vitro
measurement-setup: human, Picorana CC50
measured-quantity: CC50

Example entries and their recorded answers appear below.
# molecule, measured-quantity, reported-result
measured = [
    ("CC(C)c1ccc2c(c1)OC1(O)c3cccc(N)c3C(=O)C21NC(=O)c1nc2cc(F)ccc2[nH]1 (stereo not drawn)", "CC50", "4.43 µg/mL"),
    ("CC(C)C(=O)N1c2cc(C(C)C)ccc2C2(O)C(=O)c3ccccc3C12O (stereo not drawn)", "CC50", "18.3 µg/mL"),
]

# lookup: CC50 of CCC(=O)NC12C(=O)c3c(N)cccc3C1(O)Oc1cc(C(C)C)ccc12 (stereo not drawn)
> 50 µg/mL

Same for CCC(C)c1ccc2c(c1)C1(O)C(=O)c3ccccc3C1(O)O2 (stereo not drawn)
8.34 µg/mL

Same for CCNc1cccc2c1C(=O)C1(O)c3ccc(C(C)C)cc3OC21O (stereo not drawn)
1.58 µg/mL

Same for CC(=O)O[C@@]12Oc3cc(C(C)C)ccc3[C@]1(OC(C)=O)C(=O)c1c(NS(C)(=O)=O)cccc12 (stereo in doubt)
> 50 µg/mL

---

procedure-text: in vitro
measurement-setup: human, Picorana CC50
measured-quantity: log10(CC50) (log10 of the value in µg/mL)
// stored as log10 of CC50 expressed in µg/mL

# molecule, log10(CC50)
records = [
    ("COc1c(C(=O)NC23C(=O)c4c(N)cccc4C2(O)Oc2cc(C(C)C)ccc23)cnc2ccc(F)cc12 (stereo not shown)", -0.06),
    ("COC(=O)c1ccc(C(=O)NC23C(=O)c4c(N)cccc4C2(O)Oc2cc(C(C)C)ccc23)cc1 (stereo not shown)", 0.93),
    ("COC(=O)OC12Oc3cc(C(C)C)ccc3C1(NC(C)=O)C(=O)c1c(N)cccc12 (stereo not shown)", 1.66),
    ("CC(C)c1cc(C(C)C)c2c(c1)C1(O)C(=O)c3ccccc3C1(O)O2 (stereo not shown)", 0.91),
    ("CC(C)c1ccc2c(c1)OC1(O)c3ccc(N4CCCCC4)cc3C(=O)C21O (stereo not shown)", -0.35),
    ("Cc1ccccc1C(=O)NC12C(=O)c3c(N)cccc3C1(O)Oc1cc(C(C)C)ccc12 (stereo not shown)", 0.92),
    ("COc1cccc(C(=O)NC23C(=O)c4c(N)cccc4C2(O)Oc2cc(C(C)C)ccc23)c1 (stereo not shown)", 1.66),
    ("CC(C)c1ccc2c(c1)OC1(O)c3cccc(N)c3C(=O)C21NC(=O)c1cc2ccccn2c1 (stereo not shown)", 0.74),
    ("CCCc1ccc2c(c1)C1(O)C(=O)c3ccccc3C1(O)O2 (stereo not shown)", 0.89),
    ("CC(C)c1ccc2c(c1)OC1(O)c3cccc(N)c3C(=O)C21NC(=O)c1nccc2ccccc12 (stereo not shown)", 0.81),
]

# lookup: log10(CC50) of CC(C)C(=O)NC12Oc3cc(C(C)C)ccc3C1(NC(=O)C(C)C)C(=O)c1ccccc12 (stereo not shown)
1.66

Same for COc1cc2c(cc1OC)C1(O)C(=O)c3ccccc3C1(O)N2C(=O)C(C)C (stereo not shown)
1.59

Same for CC(C)NC(=O)Nc1cccc2c1C(=O)C1(O)c3ccc(C(C)C)cc3OC21O (stereo not shown)
0.87

Same for "CC(C)c1ccc2c(c1)O[C@@]1(O)c3cccc(N)c3C(=O)[C@@]21O"
0.97

Same for CCCCC(=O)OC12Oc3cc(C(C)C)ccc3C1(NC(C)=O)C(=O)c1ccccc12 (stereo not shown)
1.62

---

Below, each entry is listed with its recorded CC50.
procedure-text: in vitro
measurement-setup: human

# compound, CC50
data = [
    ("CC(C)c1ccc2c(c1)OC1(O)c3cccc(N)c3C(=O)C21NC(=O)c1cnnc2ccccc12 (stereo not drawn)", "> 10 µg/mL"),
]

# lookup: CC50 of CC(C)c1ccc2c(c1)OC1(O)c3ccccc3C(=O)C21NC(=O)[C@@H](Cc1ccccc1)NC(=O)OC(C)(C)C (stereo partly drawn)
> 10 µg/mL

Same for CC(C)c1ccc2c(c1)OC1(O)c3cccc(N)c3C(=O)C21NC(=O)c1cncc(F)c1 (stereo not drawn)
> 10 µg/mL

---

procedure-text: in vitro
measurement-setup: human, Picorana CC50
Below, each entry is listed with its recorded CC50.
Response body: numeric value in µg/mL, unit text excluded.

Example entries and their recorded answers appear below.
# molecule, measured-quantity, reported-result
data = [
    ("COc1cc(C(=O)NC23C(=O)c4c(N)cccc4C2(O)Oc2cc(C(C)C)ccc23)ccn1 (stereo not shown)", "CC50", 9.1),
    ("CC(C)c1ccc2c(c1)OC1(O)c3cccc(N)c3C(=O)C21NC(=O)c1ccc[nH]1 (stereo not shown)", "CC50", 31.9),
    ("Cc1cc2c(cc1C)C1(O)C(=O)c3ccccc3C1(O)N2 (stereo not shown)", "CC50", 3.53),
    ("CCCCCCCCCCCCCCCc1ccc2c(c1)C1(O)C(=O)c3ccccc3C1(O)O2 (stereo not shown)", "CC50", 43.9),
    ("CC(C)c1ccc2c(c1)OC1(O)c3ccccc3C(=O)C21N=C=O (stereo not shown)", "CC50", 70),
    ("CC(C)c1ccc2c(c1)OC1(O)c3cccc(N)c3C(=O)C21NC(=O)c1cc2ccccc2n1C (stereo not shown)", "CC50", 9.28),
    ("CCC(C)(C)c1ccc2c(c1)C1(O)C(=O)c3ccccc3C1(O)O2 (stereo not shown)", "CC50", 9.3),
    ("CC(C)c1ccc2c(c1)OC1(O)c3ccccc3C(=O)C21NC(=O)[C@@H](C)NC(=O)OC(C)(C)C (stereo partly shown)", "CC50", 36.4),
    ("CCCCCCCC(=O)N[C@@]12C(=O)c3c(N)cccc3[C@]1(O)Oc1cc(C(C)C)ccc12", "CC50", 8.49),
    ("CC(=O)N1c2ccccc2C2(N)C(=O)c3ccccc3C12O (stereo not shown)", "CC50", 1.81),
]

# lookup: CC50 of O=C1c2ccccc2C2(O)Oc3c(ccc(Cl)c3Cl)C12O (stereo not shown)
44.1

---

Below, each entry is listed with its recorded CC50.
procedure-text: in vitro
measurement-setup: human, Picorana CC50

Example entries and their recorded answers appear below.
# compound, CC50
data = [
    ("CC(C)c1ccc2c(c1)OC1(OC(=O)C(C)(C)C)c3ccccc3C(=O)C21OC(=O)C(C)(C)C (stereo not shown)", "> 50 µg/mL"),
    ("CC(C)c1ccc2c(c1)OC1(O)c3cccc(N)c3C(=O)C21NC(=O)c1cc2ccccc2o1 (stereo not shown)", "> 4.51 µg/mL"),
    ("CC(=O)Nc1ccc([N+](=O)[O-])c2c1C(=O)C1(N)c3ccc(C(C)C)cc3OC21O (stereo not shown)", "> 50 µg/mL"),
    ("CC(=O)OC12Oc3cc(C)ccc3C1(OC(C)=O)C(=O)c1ccccc12 (stereo not shown)", "> 50 µg/mL"),
    ("CC(=O)N1c2cc(C)c(C)cc2C2(O)C(=O)c3ccccc3C12O (stereo not shown)", "> 50 µg/mL"),
]

# lookup: CC50 of CC(C)c1ccc2c(c1)OC1(O)c3cccc(N)c3C(=O)C21NC(=O)C(F)(F)F (stereo not shown)
> 11 µg/mL

Same for Cc1ccc2c(c1)OC1(O)c3ccccc3C(=O)C21O (stereo not shown)
> 50 µg/mL

---

procedure-text: in vitro
measurement-setup: human, Picorana CC50
measured-quantity: CC50

# lookup: CC50 of CCCCCCC(=O)NC12C(=O)c3ccccc3C1(OC(=O)CCCCCC)Oc1cc(C(C)C)ccc12 (centres unmarked)
> 50 µg/mL

Same for CC(C)c1cc(C(C)C)c2c(c1)C1(O)C(=O)c3c(N)cccc3C1(O)O2 (centres unmarked)
> 100 µg/mL

---

Below, each entry is listed with its recorded CC50.
procedure-text: in vitro
measurement-setup: human, Picorana CC50
Response body: numeric value in µg/mL, unit text excluded.

# molecule, reported-result
measured = [
    ("O=C1c2ccccc2C2(O)Oc3c(ccc4ccccc34)C12O (stereo not drawn)", 7.82),
    ("CC(C)c1ccc2c(c1)OC1(O)c3ccccc3C(=O)C21NC(=O)c1ccccn1 (stereo not drawn)", 8.49),
    ("CCc1ccc2c(c1)C1(O)C(=O)c3ccccc3C1(O)O2 (stereo not drawn)", 37.5),
    ("CCC(C)(C)c1cc(C(C)(C)CC)c2c(c1)C1(O)C(=O)c3ccccc3C1(O)O2 (stereo not drawn)", 9.2),
]

# lookup: CC50 of CC(C)c1ccc2c(c1)OC1(O)c3cccc(N)c3C(=O)C21NC(=O)c1cc(C(C)C)nc2c1cnn2C(C)C (stereo not drawn)
4.56

Same for "CO[C@@]12Oc3cc(C(C)C)ccc3[C@]1(NC(N)=O)C(=O)c1ccccc12"
40.6

---

procedure-text: in vitro
measurement-setup: human, Picorana CC50
Below, each entry is listed with its recorded CC50.

Example entries and their recorded answers appear below.
# compound, CC50
records = [
    ("CCNC(=O)N[C@@]12C(=O)c3ccccc3[C@]1(O)Oc1cc(C(C)C)ccc12", "> 50 µg/mL"),
    ("CC(C)c1ccc2c(c1)OC1(O)c3cccc(N)c3C(=O)C21NC(=O)CF (stereo not drawn)", "> 10 µg/mL"),
    ("CC(C)c1ccc2c(c1)OC1(O)c3ccc(N)c(N)c3C(=O)C21O (stereo not drawn)", "> 50 µg/mL"),
    ("CC(C)c1ccc2c(c1)OC1(O)c3ccccc3C(=O)C21NC(=O)c1cc(=O)[nH]c(=O)[nH]1 (stereo not drawn)", "> 50 µg/mL"),
    ("CC(C)c1ccc2c(c1)OC1(O)c3ccccc3C(=O)C21NC(=O)c1c[nH]c2ccccc12 (stereo not drawn)", "> 10 µg/mL"),
]

# lookup: CC50 of CCOC(=O)Cc1cc(OC)c2c(c1)C1(O)C(=O)c3ccccc3C1(O)O2 (stereo not drawn)
> 50 µg/mL

Same for CO/N=C1/c2ccccc2C2(OC)Oc3cc(C(C)C)ccc3C12O (stereo not drawn)
> 50 µg/mL

Same for CC(C)c1ccc2c(c1)OC1(O)c3ccccc3C(=O)C21NC(=O)Cc1nnn[nH]1 (stereo not drawn)
> 50 µg/mL

Same for O=C1c2ccccc2C2(O)Oc3ccc([N+](=O)[O-])cc3C12O (stereo not drawn)
> 50 µg/mL
